Test system: dengue virus type 1
Protocol text: Activity of dengue virus 1 recombinant NS3 protease expressed in Escherichia coli C41(DE3) by fluorogenic assay
Non-standard residues stand in square brackets, D forms with d. Residues, ends and D or L forms follow the SMILES beside them. Tyr(3-NO2) = N[C@@H](Cc1ccc(O)c([N+](=O)[O-])c1)C(=O)O; 2Abz = Nc1ccccc1C(=O)O
Assay endpoint: kcat (s⁻¹)

# Compound, kcat [s⁻¹]
records = [
    ("NC(=O)C[C@H](NC(=O)CNC(=O)[C@H](Cc1cnc[nH]1)NC(=O)[C@H](Cc1cnc[nH]1)NC(=O)c1ccccc1N)C(=O)N[C@@H](Cc1ccc(O)c([N+](=O)[O-])c1)C(N)=O (H-[2Abz]HHGN[Tyr(3-NO2)]-NH2)", 0.004),
    ("CC(C)C[C@H](NC(=O)[C@H](Cc1cnc[nH]1)NC(=O)c1ccccc1N)C(=O)N[C@H](C(=O)N[C@@H](Cc1cnc[nH]1)C(=O)N[C@@H](Cc1ccc(O)c([N+](=O)[O-])c1)C(N)=O)C(C)C (H-[2Abz]HLVH[Tyr(3-NO2)]-NH2)", 0.00617),
]

P. NC(=O)[C@H](Cc1ccc(O)c([N+](=O)[O-])c1)NC(=O)[C@H](Cc1cnc[nH]1)NC(=O)[C@H](CS)NC(=O)CNC(=O)[C@H](CC(=O)O)NC(=O)c1ccccc1N (H-[2Abz]DGCH[Tyr(3-NO2)]-NH2)
Q. C[C@@H](O)[C@H](NC(=O)CNC(=O)CNC(=O)c1ccccc1N)C(=O)N[C@@H](CC(=O)O)C(=O)N[C@@H](Cc1ccc(O)c([N+](=O)[O-])c1)C(N)=O (H-[2Abz]GGTD[Tyr(3-NO2)]-NH2)
Input: Lower kcat: P or Q ? Please respond with the label that marks your chosen entry.
Output: P

P. NC(=O)[C@H](Cc1ccc(O)c([N+](=O)[O-])c1)NC(=O)[C@@H]1CCCN1C(=O)[C@@H]1CCCN1C(=O)CNC(=O)c1ccccc1N (H-[2Abz]GPP[Tyr(3-NO2)]-NH2)
Q. CC(C)[C@H](NC(=O)[C@H](CC(=O)O)NC(=O)[C@H](CC(N)=O)NC(=O)c1ccccc1N)C(=O)N[C@@H](CC(=O)O)C(=O)N[C@@H](Cc1ccc(O)c([N+](=O)[O-])c1)C(N)=O (H-[2Abz]NDVD[Tyr(3-NO2)]-NH2)
Input: Lower kcat: P or Q ? Please respond with the label that marks your chosen entry.
Output: Q

Sourced from ChEMBL document CHEMBL1152244
